test_target: Sut1 (UniProt P53032)
Sequence: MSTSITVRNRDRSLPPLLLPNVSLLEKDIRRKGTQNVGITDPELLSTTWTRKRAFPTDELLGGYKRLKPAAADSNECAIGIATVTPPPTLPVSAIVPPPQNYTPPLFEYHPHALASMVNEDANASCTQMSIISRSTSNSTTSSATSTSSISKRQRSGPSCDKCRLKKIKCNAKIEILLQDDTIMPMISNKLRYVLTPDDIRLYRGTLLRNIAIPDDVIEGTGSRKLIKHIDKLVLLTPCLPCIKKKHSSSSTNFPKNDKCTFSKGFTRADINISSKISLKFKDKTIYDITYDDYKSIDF
test: PBM E-score (8-mer binding enrichment) (E-score (-0.5 to 0.5)); higher = stronger / more preferred TF binding
stated_conditions: protein concentration: 200 nM; construct: GST-full length
Whole data set: some 33,000 sequences, median “E-score (-0.5 to 0.5)” near -0.017, cut for the highest 2% near 0.3. Many of the other results were omitted from the sample, so the highest values are more common in it than they were.
PBM E-score vs 0.09: at or above is rule met, below is rule not met.

{"construct_sequence": "ACATCGGC", "assigned_category": "rule not met"}
{"construct_sequence": "TAATATTA", "assigned_category": "rule met"}
{"construct_sequence": "ACACTCCG", "assigned_category": "rule met"}
{"construct_sequence": "AGTCCCGG", "assigned_category": "rule met"}
{"construct_sequence": "TTACGGAA", "assigned_category": "rule met"}
{"construct_sequence": "CTTTTCTC", "assigned_category": "rule met"}
{"construct_sequence": "CCACTCCA", "assigned_category": "rule not met"}
{"construct_sequence": "TACGGAGA", "assigned_category": "rule met"}
{"construct_sequence": "ATCGCTAC", "assigned_category": "rule not met"}
{"construct_sequence": "TGAATTCA", "assigned_category": "rule not met"}
{"construct_sequence": "ACGCGGAC", "assigned_category": "rule met"}
{"construct_sequence": "CGATGCTC", "assigned_category": "rule met"}
{"construct_sequence": "ACACTCGG", "assigned_category": "rule not met"}
{"construct_sequence": "CAATCGGA", "assigned_category": "rule met"}
{"construct_sequence": "ATTTCGAC", "assigned_category": "rule not met"}
{"construct_sequence": "TCATCGAA", "assigned_category": "rule not met"}
{"construct_sequence": "GACGCCGC", "assigned_category": "rule not met"}
{"construct_sequence": "ACAGTCAC", "assigned_category": "rule not met"}
{"construct_sequence": "ATTTCGAA", "assigned_category": "rule met"}
{"construct_sequence": "GCAGAGGA", "assigned_category": "rule not met"}
{"construct_sequence": "ATACGGAA", "assigned_category": "rule met"}
{"construct_sequence": "GTGCAGGA", "assigned_category": "rule not met"}
{"construct_sequence": "CAAGGAGA", "assigned_category": "rule not met"}
{"construct_sequence": "CTTCGGCC", "assigned_category": "rule not met"}
{"construct_sequence": "CCGCCTAG", "assigned_category": "rule not met"}
{"construct_sequence": "ATACGGAC", "assigned_category": "rule met"}
{"construct_sequence": "AGGGGGTA", "assigned_category": "rule not met"}
{"construct_sequence": "TAATCGGA", "assigned_category": "rule met"}
{"construct_sequence": "TACTGAGA", "assigned_category": "rule not met"}
{"construct_sequence": "AATTATTG", "assigned_category": "rule met"}
{"construct_sequence": "AGTCCGGC", "assigned_category": "rule met"}
{"construct_sequence": "CGGACTCC", "assigned_category": "rule met"}
{"construct_sequence": "TACACCCA", "assigned_category": "rule not met"}
{"construct_sequence": "CGAGGTCA", "assigned_category": "rule not met"}
{"construct_sequence": "TACGGACA", "assigned_category": "rule met"}
{"construct_sequence": "ATTTCGGA", "assigned_category": "rule met"}
{"construct_sequence": "CCATCGGA", "assigned_category": "rule met"}
{"construct_sequence": "ATTTCGGC", "assigned_category": "rule met"}
{"construct_sequence": "AATCTCTG", "assigned_category": "rule not met"}
{"construct_sequence": "AGGGGCGG", "assigned_category": "rule not met"}
{"construct_sequence": "CCGCGGAA", "assigned_category": "rule met"}
{"construct_sequence": "GTACGGAA", "assigned_category": "rule met"}
{"construct_sequence": "ACACTCCT", "assigned_category": "rule not met"}
{"construct_sequence": "TGTTCGAA", "assigned_category": "rule met"}
{"construct_sequence": "ACATCGGT", "assigned_category": "rule not met"}
{"construct_sequence": "TCATCGGA", "assigned_category": "rule met"}
{"construct_sequence": "CAATATGA", "assigned_category": "rule met"}
{"construct_sequence": "GATGGTGA", "assigned_category": "rule not met"}
{"construct_sequence": "AACGGAGG", "assigned_category": "rule not met"}
{"construct_sequence": "CGTCCGGA", "assigned_category": "rule met"}
{"construct_sequence": "AGTCCTGC", "assigned_category": "rule not met"}
{"construct_sequence": "AAACTAAT", "assigned_category": "rule met"}
{"construct_sequence": "ACTCTCCG", "assigned_category": "rule met"}
{"construct_sequence": "CATTCTGA", "assigned_category": "rule not met"}
{"construct_sequence": "GAATCGGC", "assigned_category": "rule not met"}
{"construct_sequence": "CCCCAATC", "assigned_category": "rule not met"}
{"construct_sequence": "AATCCGGG", "assigned_category": "rule met"}
{"construct_sequence": "CGTCCGGC", "assigned_category": "rule not met"}
{"construct_sequence": "AATTATCC", "assigned_category": "rule met"}
{"construct_sequence": "ATCTAGGG", "assigned_category": "rule not met"}
{"construct_sequence": "ACGCGGAA", "assigned_category": "rule met"}
{"construct_sequence": "GATTATTA", "assigned_category": "rule met"}
{"construct_sequence": "AAAATCGC", "assigned_category": "rule met"}
{"construct_sequence": "CCGACTCA", "assigned_category": "rule not met"}
{"construct_sequence": "GAATATGA", "assigned_category": "rule met"}
{"construct_sequence": "CGGACTCA", "assigned_category": "rule met"}
{"construct_sequence": "AATTATTA", "assigned_category": "rule met"}
{"construct_sequence": "AAGCGCGC", "assigned_category": "rule met"}
{"construct_sequence": "CACGGAGC", "assigned_category": "rule met"}
{"construct_sequence": "CAGTACGA", "assigned_category": "rule not met"}
{"construct_sequence": "AATTATTC", "assigned_category": "rule met"}
{"construct_sequence": "ACATCGGA", "assigned_category": "rule met"}
{"construct_sequence": "ATACTCCC", "assigned_category": "rule met"}
{"construct_sequence": "CTTCGGAC", "assigned_category": "rule met"}
{"construct_sequence": "AAATCGGT", "assigned_category": "rule not met"}
{"construct_sequence": "CTTCGGGC", "assigned_category": "rule not met"}
{"construct_sequence": "AGCATACA", "assigned_category": "rule met"}
{"construct_sequence": "ATTTCAAA", "assigned_category": "rule met"}
{"construct_sequence": "ACTATTCT", "assigned_category": "rule not met"}
{"construct_sequence": "AGGCCGGA", "assigned_category": "rule met"}
{"construct_sequence": "CATTATTC", "assigned_category": "rule met"}
{"construct_sequence": "ATTTCGGG", "assigned_category": "rule not met"}
{"construct_sequence": "ATAGGTCA", "assigned_category": "rule not met"}
{"construct_sequence": "TAATATCA", "assigned_category": "rule met"}
{"construct_sequence": "AACGGAGT", "assigned_category": "rule met"}
{"construct_sequence": "AAATCGGA", "assigned_category": "rule met"}
{"construct_sequence": "ATTCAGGA", "assigned_category": "rule met"}
{"construct_sequence": "CTTCGGAA", "assigned_category": "rule met"}
{"construct_sequence": "CTTTATTA", "assigned_category": "rule met"}
{"construct_sequence": "ATTTATTA", "assigned_category": "rule met"}
